Target: hnRNP G-T RRM (Homo sapiens)
Test: EMSA
Settings: EMSA with radio-labelled T7 transcripts and 30 or 100 ng RRM protein; buffer, salt, pH and temperature not given in material
pKd: −log10 of the molar value.
Measurement kind: pKd

- Residues: "AGGUAUUGGGCUUUGGCUGAGGGCUUUUUGUUGUUGUUGUUGUUGUU [ABwt]"
  Measurement kind: "pKd"
  Measurement: 8.77
